Target: GFRα1/RET (Homo sapiens, UniProt P07949+P56159)
Construct: Full-length human GFRα1 cDNA (Sidorova et al., unpublished) subcloned in pcDNA6; expressed in transfected cells; host or cells: MG87RET murine fibroblasts transiently transfected with GFRα1
Sequence (P56159 25-429 limits assumed, species assumed, one chain of several): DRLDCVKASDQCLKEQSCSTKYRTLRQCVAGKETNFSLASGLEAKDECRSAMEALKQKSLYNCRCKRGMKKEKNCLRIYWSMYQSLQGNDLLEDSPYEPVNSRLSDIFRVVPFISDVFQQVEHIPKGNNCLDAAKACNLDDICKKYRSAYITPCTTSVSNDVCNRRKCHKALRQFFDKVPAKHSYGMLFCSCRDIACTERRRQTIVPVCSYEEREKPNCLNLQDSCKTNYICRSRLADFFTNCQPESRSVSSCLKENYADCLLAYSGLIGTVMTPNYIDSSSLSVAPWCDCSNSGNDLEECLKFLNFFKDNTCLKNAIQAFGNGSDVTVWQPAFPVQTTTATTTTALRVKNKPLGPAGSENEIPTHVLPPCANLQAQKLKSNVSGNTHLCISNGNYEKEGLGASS
Assay: RET phosphorylation by BT compounds, IP and Western blotting (FIG. 6A)
Assay type: cell-based
Settings: 100 μM, 15 min; MG87 RET fibroblasts transfected with GFRα1
measured_endpoint: RET phosphorylation via GFRα1

molecule | measured_endpoint | data_value
COc1ccc(S(=O)(=O)N2CCc3ccccc3C2)cc1N1CCN(C(=O)c2cc(F)ccc2C(F)(F)F)CC1 [BT16] | RET phosphorylation via GFRα1 | strongly activated RET
CCN(CC)S(=O)(=O)c1ccc(OC)c(N2CCN(C(=O)c3cc(F)ccc3C(F)(F)F)CC2)c1 [BT13] | RET phosphorylation via GFRα1 | strongly activated RET

###

Biological target: RET via GFRα (UniProt P07949+Q62997)
Construct: Full-length flag-tagged rat Gfrα1 cDNA; FLAG; expressed in transfected cells; host or cells: αLUC cells: MG87RET murine fibroblasts stably transfected with GFRα1 plasmid, Gal4-Luc and Gal4-Elk
Sequence (Q62997 25-430 limits assumed): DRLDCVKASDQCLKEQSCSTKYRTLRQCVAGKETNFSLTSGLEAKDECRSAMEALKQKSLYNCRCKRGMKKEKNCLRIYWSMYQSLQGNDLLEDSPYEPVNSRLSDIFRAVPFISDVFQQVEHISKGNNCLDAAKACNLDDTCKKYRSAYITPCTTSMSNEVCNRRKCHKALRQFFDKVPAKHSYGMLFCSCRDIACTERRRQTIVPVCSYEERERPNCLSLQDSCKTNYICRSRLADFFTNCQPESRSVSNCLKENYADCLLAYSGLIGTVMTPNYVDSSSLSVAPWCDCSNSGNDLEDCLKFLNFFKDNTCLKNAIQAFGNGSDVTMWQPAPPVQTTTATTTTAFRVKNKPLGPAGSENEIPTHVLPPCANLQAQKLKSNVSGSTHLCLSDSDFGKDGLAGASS
Sequence (P07949 29-1114): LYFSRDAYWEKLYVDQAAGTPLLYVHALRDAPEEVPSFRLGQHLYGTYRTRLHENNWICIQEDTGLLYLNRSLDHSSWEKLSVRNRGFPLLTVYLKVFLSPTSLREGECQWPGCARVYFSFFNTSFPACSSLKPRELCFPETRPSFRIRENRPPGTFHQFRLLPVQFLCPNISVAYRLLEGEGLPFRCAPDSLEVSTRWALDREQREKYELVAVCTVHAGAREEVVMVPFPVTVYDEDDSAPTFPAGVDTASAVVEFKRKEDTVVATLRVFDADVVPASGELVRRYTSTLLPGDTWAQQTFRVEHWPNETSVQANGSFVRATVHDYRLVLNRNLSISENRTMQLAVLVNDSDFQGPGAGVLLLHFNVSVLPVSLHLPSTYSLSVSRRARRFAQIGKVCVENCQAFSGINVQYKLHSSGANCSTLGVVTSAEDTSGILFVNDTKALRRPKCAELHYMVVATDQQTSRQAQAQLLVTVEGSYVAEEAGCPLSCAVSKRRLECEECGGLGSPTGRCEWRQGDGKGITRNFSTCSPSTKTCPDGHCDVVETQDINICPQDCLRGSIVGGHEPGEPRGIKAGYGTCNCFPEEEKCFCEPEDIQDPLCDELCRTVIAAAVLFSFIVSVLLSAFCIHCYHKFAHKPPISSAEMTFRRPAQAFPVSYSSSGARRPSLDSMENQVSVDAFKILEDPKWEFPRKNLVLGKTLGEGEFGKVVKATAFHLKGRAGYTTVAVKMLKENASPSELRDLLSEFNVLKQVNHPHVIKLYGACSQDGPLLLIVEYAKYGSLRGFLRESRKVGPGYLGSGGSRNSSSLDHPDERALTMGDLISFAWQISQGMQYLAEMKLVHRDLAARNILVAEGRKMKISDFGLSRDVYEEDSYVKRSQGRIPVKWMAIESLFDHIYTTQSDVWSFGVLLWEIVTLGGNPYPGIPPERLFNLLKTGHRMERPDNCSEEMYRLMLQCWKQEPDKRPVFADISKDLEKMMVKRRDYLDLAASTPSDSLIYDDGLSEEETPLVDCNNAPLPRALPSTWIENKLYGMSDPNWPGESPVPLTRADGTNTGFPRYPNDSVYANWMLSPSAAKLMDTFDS
Assay: RET phosphorylation assay by immunoprecipitation and Western blotting (FIG. 4)
Format: cell-based
Conditions: FIG. 4 lanes; active / inactive
measured_endpoint: RET activation (phosphotyrosine Western blot of immunoprecipitated RET)

molecule | data_value
Clc1ccc2c(NCCCCCCNc3ccnc4cc(Cl)ccc34)ccnc2c1 | inactive
CCN(CC)CCCC(C)Nc1ccnc2cc(Cl)ccc12 (stereo not shown) | inactive
CCN(CC)CCCC(C)Nc1cc(/C=C/c2ccc(Cl)cc2)nc2ccc(N(C)C)cc12 (stereo not shown) | active
CCN(CC)CCCCCCNc1ccnc2cc(Cl)ccc12 | inactive
CCN(CC)CCCC(C)Nc1cc(/C=C/c2ccc(Cl)cc2)nc2cc(N(C)C)ccc12 (stereo not shown) | active
OCCNCCNc1c2ccccc2nc2cc(Cl)ccc12 | inactive
CC(CCCN(C)Cc1ccccc1)Nc1ccnc2cc(Cl)ccc12 (stereo not shown) | active

Data provenance: patent US8901129B2
